Procedure Text: Antiproliferative activity against mouse BA/F3 cells assessed as cell viability after 72 hrs by CellTiter-Glo or CCK-8 assay
Type: cell-based, BaF3
Reported Property: GI50 at 72 h

Look up GI50 at 72 h for this molecule: CNc1nc(Nc2ccc(C)c([N+](=O)[O-])c2)ncc1C(=O)Nc1cc(NC(=O)c2cc(OC)c(OC)c(OC)c2)ccc1C > 10 µM

Look up GI50 at 72 h for this molecule: Cc1ccc(NC(=O)c2cccc(C(F)(F)F)c2)cc1N1Cc2cnc(NCCCN3CCOCC3)nc2N(C)C1=O 5.6 µM

Look up GI50 at 72 h for this molecule: Cc1ccc(NC(=O)c2cccc(C(F)(F)F)c2)cc1NC(=O)c1cnc(Nc2ccc(C)c([N+](=O)[O-])c2)nc1 8.7 µM

Look up GI50 at 72 h for this molecule: CNc1nc(Nc2ccc(C)c([N+](=O)[O-])c2)ncc1C(=O)Nc1cc(NC(=O)c2cccc(C(F)(F)F)c2)ccc1C > 10 µM

Look up GI50 at 72 h for this molecule: Cc1ccc(NC(=O)c2cccc(C(F)(F)F)c2)cc1N1Cc2cnc(O[C@H]3CCNC3)nc2N(C)C1=O > 10 µM

Look up GI50 at 72 h for this molecule: Cc1ccc(Nc2ncc3c(n2)N(C)C(=O)N(c2cc(NC(=O)c4cccc(C(F)(F)F)c4)ccc2C)C3)cc1N(C)C > 10 µM

Look up GI50 at 72 h for this molecule: Cc1cc(C)cc(C(=O)Nc2ccc(C)c(N3Cc4cnc(Nc5ccc(C)c(N)c5)nc4N(C)C3=O)c2)c1 > 10 µM

Look up GI50 at 72 h for this molecule: CNc1nc(Nc2ccc(C)c([N+](=O)[O-])c2)ncc1C(=O)Nc1cc(NC(=O)c2cccc(OC)c2)ccc1C 6.31 µM
